target.of.assay: human GLP-1-R (Homo sapiens)
Construct: expressed in transfected cells
Sequence (P43220 24-463): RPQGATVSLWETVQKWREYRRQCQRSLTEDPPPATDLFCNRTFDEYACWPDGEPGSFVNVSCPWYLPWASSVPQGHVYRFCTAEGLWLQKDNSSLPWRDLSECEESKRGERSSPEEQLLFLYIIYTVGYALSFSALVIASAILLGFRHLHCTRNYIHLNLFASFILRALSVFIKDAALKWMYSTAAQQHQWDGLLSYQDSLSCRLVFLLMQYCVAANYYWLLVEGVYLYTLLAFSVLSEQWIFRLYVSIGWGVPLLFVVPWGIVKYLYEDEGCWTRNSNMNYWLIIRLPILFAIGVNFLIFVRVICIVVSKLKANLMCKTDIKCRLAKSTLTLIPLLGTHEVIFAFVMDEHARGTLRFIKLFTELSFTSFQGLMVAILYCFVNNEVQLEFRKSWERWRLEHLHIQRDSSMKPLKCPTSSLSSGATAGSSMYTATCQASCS
procedure.details: GLP-1 receptor efficacy assay (cAMP, HEK293 cells); further: crude peptides with purity of less than 90%
Format: cell-based
pEC50: −log10 of the molar value.
measured.quantity: pEC50

Consider the worked cases shown below.
1. H-HSQGTFTSDYSKYLDSRRAKDFIEWLLSA-NH2 [Compound L006-0081]: 9.85
2. H-HSQGTFTSDYSKYLDERRAQDFIEWLLSA-NH2 [Compound L006-0082]: 10.05
3. H-HSQGTFTSDYSKYLDERRAKDFIEWLLAA-NH2 [Compound L006-0136]: 9.66

(I) H-HSQGTFTSDYSKYLDKRRAEDFIKWLLSA-NH2 [Compound L006-0094]
(II) H-HSQGTFTSDYSKYLDDRRARDFIDWLLSA-NH2 [Compound L006-0093]
Form: Entry with minimum pEC50 (choose one): I / II Refer to your chosen item by its label in the answer.
I
(I: 9.80, II: 10.15)

(a) H-HSQGTFTSDYSKYLDERRAKDFIDWLLSA-NH2 [Compound L006-0129]
(b) H-HSQGTFTSDYSKYLDERAAKDFIEWLLSA-NH2 [Compound L006-0108]
(c) H-HSQGTFTSDYSKYLDERRAKDFIQWLLSA-NH2 [Compound L006-0084]
Hey, can you sort those substances up there by pEC50, smallest first? Please respond with the labels ordered as the question requires.
b, a, c

(a) H-HSQGTFTSDYSKYLDERRAKDFIEWLLRA-NH2 [Compound L006-0138]
(b) H-HSQGTFTSDYSKYLDERRAKDFIRWLLSA-NH2 [Compound L006-0128]
Form: Entry with minimum pEC50 (choose one): a / b Refer to your chosen item by its label in the answer.
a

----------
target.of.assay: human Glucagon-R (Homo sapiens, UniProt P47871)
Construct: expressed in transfected cells
Sequence (P47871 26-477): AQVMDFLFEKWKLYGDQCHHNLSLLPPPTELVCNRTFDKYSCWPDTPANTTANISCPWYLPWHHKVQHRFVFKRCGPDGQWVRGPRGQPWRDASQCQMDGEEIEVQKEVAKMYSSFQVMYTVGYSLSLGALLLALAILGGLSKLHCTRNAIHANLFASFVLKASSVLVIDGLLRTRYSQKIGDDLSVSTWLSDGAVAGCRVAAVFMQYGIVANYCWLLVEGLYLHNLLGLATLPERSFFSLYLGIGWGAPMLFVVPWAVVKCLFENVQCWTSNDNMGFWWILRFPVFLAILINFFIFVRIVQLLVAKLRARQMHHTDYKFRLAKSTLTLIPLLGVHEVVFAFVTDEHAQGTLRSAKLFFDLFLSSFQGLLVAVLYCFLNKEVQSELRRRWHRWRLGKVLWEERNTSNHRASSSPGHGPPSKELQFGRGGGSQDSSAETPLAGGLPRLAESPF
procedure.details: Glucagon receptor efficacy assay (cAMP, HEK293 cells); further: crude peptides with purity of less than 90%
Type: cell-based
run.parameters: read-out: GLUR EC50
Description: The 5′-end primers additionally encoded a near Kozak consensus sequence to ensure efficient translation. 48 hr after transfection cells were seeded for limited dilution cloning and selected with 1 mg/ml G418 in the culture medium. On the day of analysis, growth medium was removed and the cells washed once with 200 μl Tyrode buffer. Cells were incubated in 100 μl Tyrode buffer containing increasing concentrations of test peptides, 100 μM IBMX, and 6 mM glucose for up 15 min at 37° C. […]
pEC50: −log10 of the molar value.
measured.quantity: pEC50

1) H-HSQGTFTSDYSKYLDERRAKDFIQWLLSA-NH2 [Compound L006-0084]: 9.89
2) H-HSQGTFTSDYSKYLDERRAKDFIDWLLSA-NH2 [Compound L006-0129]: 9.62
3) H-HSQGTFTSDYSKYLDSRRAKDFIEWLLSA-NH2 [Compound L006-0081]: 9.64
4) H-HSQGTFTSDYSKYLDKRRAEDFIKWLLSA-NH2 [Compound L006-0094]: 9.60
5) H-HSQGTFTSDYSKYLDERRAKDFIEWLLAA-NH2 [Compound L006-0136]: 9.48

(a) H-HSQGTFTSDYSKYLDERAAKDFIEWLLSA-NH2 [Compound L006-0108]
(b) H-HSQGTFTSDYSKYLDERRAKDFIRWLLSA-NH2 [Compound L006-0128]
(c) H-HSQGTFTSDYSKYLDDRRARDFIDWLLSA-NH2 [Compound L006-0093]
(d) H-HSQGTFTSDYSKYLDERRAKDFIEWLLRA-NH2 [Compound L006-0138]
Output the entries ranked by pEC50 from maximum down to minimum. Please respond with the labels ordered as the question requires.
c, b, d, a
(c: 10.00, b: 9.66, d: 9.42, a: 9.09)
